Parameter 'readout' = IC50; parameter 'system' = Heat shock protein HSP 90-alpha (Homo sapiens).

Query block: Lab note: record IC50 of COC(=O)c1noc2c1CN(C(C)=O)CC2 tested on Heat shock protein HSP 90-alpha (Homo sapiens).
Result block: > 100 µM

Query block: Lab note: record IC50 of CCNC(=O)c1noc2c1CN(C(=O)Nc1cc(C(C)C)c(O)cc1O)CC2 tested on Heat shock protein HSP 90-alpha (Homo sapiens).
Result block: > 100 µM

Query block: Lab note: record IC50 of CCNC(=O)c1noc2c1CN(C(=O)Nc1cc(Cl)c(O)cc1O)CC2 tested on Heat shock protein HSP 90-alpha (Homo sapiens).
Result block: > 100 µM
